- Measurement target: MtYcaO (YcaO from Methanothermobacter sp. CaT2), MBP-His tag cut in the assay mixture (Methanothermobacter sp. CaT2)
- Test name: fluorescence polarisation
Quantity: EC50 (nM)

binder="MtTfuA-D203A (enzyme) MHGKKIIIFTGPSLSHTEASSILEAEYRPPVRRGDIQEAMKENPDIIGIIDGVFHQSPAVGHREIIDAIRRGVKVVGGASMGALRASELSDLGMVGVGRIFRSYLEGEIESDDDVAVAFNPETLEPLSDSLVSIEFNLKRALRRGVIREDDFRKLMNTARNLFYPLRNYRRILHESGIPDDVKESLRSFLESEGRALKREDALEVIRHIKRLAYTE" quantity=EC50 value_comparator== experimental_value=2900
binder="MtTfuA-E91Q (enzyme) MHGKKIIIFTGPSLSHTEASSILEAEYRPPVRRGDIQEAMKENPDIIGIIDGVFHQSPAVGHREIIDAIRRGVKVVGGASMGALRASQLSDLGMVGVGRIFRSYLEGEIESDDDVAVAFNPETLEPLSDSLVSIEFNLKRALRRGVIREDDFRKLMNTARNLFYPLRNYRRILHESGIPDDVKESLRSFLESEGRDLKREDALEVIRHIKRLAYTE" quantity=EC50 value_comparator=> experimental_value=30000
